endpoint-name: melting point

Observe how each entry below is paired with its result.
[
  {
    "compound": "CC(=O)N(O)Cc1ccccc1Nc1cccc(C)c1C",
    "assay-value": "93 to 98 °C"
  },
  {
    "compound": "CC1(C)CCN(C(=O)NCc2ccccc2)c2cc(C#N)ccc21",
    "assay-value": "114 to 115 °C"
  },
  {
    "compound": "COc1ccc(-c2cc(C(C)(C)C)c(O)c(C(C)(C)C)c2)cc1",
    "assay-value": "109 to 110 °C"
  }
]

Could you tell me melting point for each of these compounds? They are listed below.
1. CCOP(=O)(O)COCCn1cnc2c(=O)[nH]c(N)nc21
2. COC(=O)c1c(CC#N)c(-c2ccc3c(c2)OCO3)c2c3c(ccc2c1C)OCO3
3. Cc1cc(C)cc(OCC(O)CCCl)c1 (stereo unspecified)
4. CCc1nc(C)c(C(=O)Nc2cc(Oc3ccc4nc(NC(=O)C5CC5)cn4n3)ccc2F)o1
5. COc1ccc2[nH]c(C(C)=NO)cc2c1
6. N#Cc1c[nH]c(-c2ccc3ccccc3c2)c1
7. CCCNc1c(C#N)cnn1-c1ccc(OC(F)(F)F)cc1Cl

1: 192 to 194 °C; 2: 215 to 217 °C; 3: 74 to 76 °C; 4: 228 °C; 5: 148 to 150 °C; 6: 200 to 206 °C; 7: 63 °C

Param item = CC1(C)Oc2ccsc2C(N)C1O (stereo unspecified) ; retrieve measured melting point.
111 to 116 °C

###

So I've got a bunch of compounds here, and I need their melting point values.

Solved entries:
[
  {
    "compound": "CN(C)CCSc1cc(NC(=O)OC(C)(C)C)c(NC(=O)CC(=O)c2cccc(C#N)c2)cc1C#Cc1ccccc1",
    "melting point": "88 °C"
  },
  {
    "compound": "CC(=O)C[C@@H](Cc1ccccc1)C(=O)O",
    "melting point": "71 to 73 °C"
  },
  {
    "compound": "COc1ccc(C2=C(/C=C/C(=O)Oc3ccc([N+](=O)[O-])cc3)CCc3cc(OC)ccc32)cc1",
    "melting point": "151 to 152 °C"
  },
  {
    "compound": "Nc1cnc2cc(F)c(F)cc2c1",
    "melting point": "155 °C"
  },
  {
    "compound": "COc1ccc2c(c1)Nc1cccc(S(=O)(=O)N(C)C)c1S2",
    "melting point": "196 to 198 °C"
  },
  {
    "compound": "CCOC(=O)c1[nH]cc2c1NC1=C(C(=O)CCC1)C2c1ccc(Sc2nc3ccc(F)c(F)c3[nH]2)o1 (stereo unspecified)",
    "melting point": "144 to 148 °C"
  }
]

Value sought for every listed compound: melting point.
1. CN(C)C(=S)SCn1c(Br)c(Br)c(S(=O)(=O)C(F)(F)F)c1-c1ccc(Cl)cc1
2. CC(=O)OCCn1ccc(=O)c(O)c1Cc1ccccc1
3. CCCC1=C(C#N)C(c2cccc(C)c2[N+](=O)[O-])c2c[nH]nc2N1 (stereo unspecified)
4. CCC1(O)CSC(=S)N1c1cccc(C)n1 (stereo unspecified)
5. FC(F)Oc1ccc(C2=NNCC2c2ccccc2)cc1 (stereo unspecified)

["185 to 187 °C", "140 to 141 °C", "250 °C", "118 °C", "65 to 75 °C"]

###

endpoint-name: melting point

[
  {
    "compound": "Cc1cccc(C(=O)N(C(=O)c2cccc(C)c2)c2nc3ccccc3c(NCc3ccccc3)c2C#N)c1",
    "melting point": "234 °C"
  },
  {
    "compound": "COC(=O)c1c(OC)ccc(OC)c1N=CN(C)C",
    "melting point": "81 to 83 °C"
  },
  {
    "compound": "O=C(COc1cccc2ccccc12)NC(Cc1ccccc1)C(=O)CSCc1ccco1 (centres undefined)",
    "melting point": "104 to 106 °C"
  },
  {
    "compound": "COc1ccc(C=NS(=O)(=O)c2ccc(C)cc2)cc1",
    "melting point": "127 °C"
  },
  {
    "compound": "CCCOC(=O)c1cc(OC)c(OC)c(OCC)c1-c1c(C(=O)OC)cc(OC)c2c1OCO2",
    "melting point": "74.5 to 76 °C"
  }
]

Dear colleague, could you please provide melting point for the compounds listed below?
1. CCOC(=O)c1cn(-c2nc(OC)c(F)cc2F)c2c(Cl)c(F)c(F)cc2c1=O
2. CC(=O)c1cccc(-c2nc(Nc3ccc(OC(F)(F)F)cc3)cc(N3CCOCC3)n2)c1
3. CCCCSc1c(CC(C)(C)C(=O)O)n(Cc2ccc(Cl)cc2)c2ccc(C(C)C)cc12
4. CCc1[nH]n(C2CCCC2)c2nc(-c3cccc(OCC(=O)N4CCOCC4)c3)nc(=O)c1-2

["140 to 143 °C", "218 to 220 °C", "129 to 130 °C", "212 to 213 °C"]

###

Kindly state melting point for each of the entries shown.

Example cases with answers are listed next.
[
  {
    "compound": "CCc1cc2c(cc1C(CC)SCC(=O)O)OCO2 (stereo unspecified)",
    "melting point": "88 to 89 °C"
  },
  {
    "compound": "CCSc1ncn(-c2ccc(O)cc2)n1",
    "melting point": "170 °C"
  },
  {
    "compound": "CCCCC(CC)COC(=O)C(C#N)=Cc1ccc(NC(C)=O)cc1 (stereo unspecified)",
    "melting point": "119 °C"
  }
]

List reported melting point for each of these compounds:
1. COC(C1=CN(C)CS1)c1ccccc1COc1cc(Cl)ccc1Cl (stereo unspecified)
2. CCOC(=O)c1cc(Cl)cc(NCS(=O)(=O)c2ccc(Cl)cc2)c1Cl
3. CCCCCC(=O)NS(=O)(=O)CCc1cc(OC(C)C)nn1Cc1ccc(Cl)cc1Cl
4. O=C(c1ccccc1)C1C=C(Cl)C=CC1(F)NCCO (stereo unspecified)
5. CCC(C=O)c1ccc(S(=O)(=O)NC)cc1 (stereo unspecified)
6. NCCc1c[nH]c2ccc(C(N)=O)cc12
7. C=CC1CN(S(=O)(=O)c2ccc(C)cc2)CCN1S(=O)(=O)c1ccc(C)cc1 (stereo unspecified)

78.5 to 79.5 °C
173 to 175 °C
107 to 108 °C
96 to 101 °C
202 to 204 °C
173 to 176 °C
177 to 178 °C

Would you kindly share the measured melting point for CCc1cn(C2CCC(CNC(=O)Cc3c(Cl)cccc3Cl)O2)c(=O)[nH]c1=O (stereo unspecified) ?
237 to 238 °C

###

endpoint-name: melting point

[
  {
    "compound": "COC(=O)C1=C(C)NC(C)=C(C(=O)OC)C1c1cccc(N)c1",
    "melting point": "214 to 215 °C"
  },
  {
    "compound": "COc1ccccc1NC(=O)Nc1ccc(C2=CCN(C(=O)Nc3ccc(OCCO)cc3Cl)CC2)cc1",
    "melting point": "120 to 125 °C"
  },
  {
    "compound": "CCOCC1OC(n2cnc3c(NCc4cccc(I)c4)ncnc32)C(O)C1O (stereo unspecified)",
    "melting point": "164 to 166 °C"
  }
]

// input: 6 compounds below; output: melting point for each
1. CCCCCC(O)CNCCCCCCNCC(O)CCCCC (stereo unspecified)
2. O=CNCC1CCc2ccccc2N(C=O)C1 (stereo unspecified)
3. COc1cccc2c1CC(=O)c1cc(C(C)C(N)=O)ccc1S2 (stereo unspecified)
4. CCCN1CC(CO)CC2c3cccc4[nH]cc(c34)CC21 (stereo unspecified)
5. CC(C)(C)c1nc2cc(N3CCOCC3)c([N+](=O)[O-])cc2s1
6. CC#CCOc1cc(Oc2cccc(C(C)=O)c2)ncn1

1: 131 to 134 °C; 2: 128 °C; 3: 178 to 180 °C; 4: 166 to 168 °C; 5: 119 to 121 °C; 6: 94 °C

###

Can you tell me melting point for the items I'm about to list?

[
  {
    "compound": "COC(N)=CC(=O)C(C)(C)C",
    "melting point": "79 to 79.5 °C"
  },
  {
    "compound": "Cn1c(C(F)(F)F)cc(=O)n(-c2cc(OCc3ccccc3)c(Cl)cc2F)c1=O",
    "melting point": "129 to 131 °C"
  },
  {
    "compound": "N#Cc1ccc(C(=O)Nc2ccc(Cl)c([N+](=O)[O-])c2)cc1",
    "melting point": "213 °C"
  }
]

Would you mind listing melting point for each of the following compounds?
1. Cc1ccc(S(=O)(=O)Oc2cccc(C=O)c2)cc1
2. COC(=O)C1C=CCn2c(=O)n(CCl)c(=O)n21 (stereo unspecified)
3. N#CCc1cccc(CO)c1[N+](=O)[O-]

["65 to 67 °C", "164 to 165 °C", "60 to 62 °C"]
